- Measurement target: T1, human gamma (γ) common chain expressed on CHO cells (human, UniProt P31785 23-369)
- T1 construct: whole, on cells; Control protein; also called human IL-2R-γ common subunit; human γ-common
- T1 sequence (looked up): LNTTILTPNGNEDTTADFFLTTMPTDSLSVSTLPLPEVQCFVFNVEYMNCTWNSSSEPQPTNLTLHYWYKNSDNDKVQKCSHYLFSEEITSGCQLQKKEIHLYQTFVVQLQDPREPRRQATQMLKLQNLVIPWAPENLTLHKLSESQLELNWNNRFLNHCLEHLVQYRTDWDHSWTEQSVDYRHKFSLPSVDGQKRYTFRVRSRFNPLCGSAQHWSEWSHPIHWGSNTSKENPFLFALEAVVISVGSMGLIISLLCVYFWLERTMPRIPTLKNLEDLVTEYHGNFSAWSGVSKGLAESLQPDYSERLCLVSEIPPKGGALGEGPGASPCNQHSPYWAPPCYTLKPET
- Protocol text: cell ELISA, CHO cells
Observable: A450 (13 nM Ab) (A450)

[[record]]
binder = "AbQ (antibody, human IgG1, V domains shown, CDR3 graft, residue limits derived as for m29; also called VH3/VL2; VH3DM/VL2) VH: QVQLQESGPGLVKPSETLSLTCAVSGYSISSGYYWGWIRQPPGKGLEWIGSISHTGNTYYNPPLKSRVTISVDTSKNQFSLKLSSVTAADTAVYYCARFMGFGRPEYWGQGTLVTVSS VL: SSELTQDPAVSVALGQTVRITCQGDSLRTYYASWYQQKPGQAPVLVIYGKHKRPSGIPDRFSGSSSGNTASLTITGAQAEDEADYYCVARSVVGNPHVLFGGGTQLTVL"
endpoint_result = 0.125

[[record]]
binder = "AbS (antibody, V domains shown, CDR3 graft, residue limits derived as for m29; also called VHP/VL6; VHPTM/VL6) VH: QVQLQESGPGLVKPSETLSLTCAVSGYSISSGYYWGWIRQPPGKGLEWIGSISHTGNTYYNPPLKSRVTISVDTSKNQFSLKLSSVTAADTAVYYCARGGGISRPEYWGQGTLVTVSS VL: SSELTQDPAVSVALGQTVRITCQGDSLRTYYASWYQQKPGQAPVLVIYGKHKRPSGIPDRFSGSSSGNTASLTITGAQAEDEADYYCMSRSIWGNPHVLFGGGTQLTVL"
endpoint_result = 0.118

[[record]]
binder = "AbN (antibody, IgG1, V domains shown, As for AbA: IgG1/lambda, CDR3 graft, residue limits derived; also called VH6/VL24) VH: QVQLQESGPGLVKPSETLSLTCAVSGYSISSGYYWGWIRQPPGKGLEWIGSISHTGNTYYNPPLKSRVTISVDTSKNQFSLKLSSVTAADTAVYYCARFFGFGRPEYWGQGTLVTVSS VL: SSELTQDPAVSVALGQTVRITCQGDSLRTYYASWYQQKPGQAPVLVIYGKHKRPSGIPDRFSGSSSGNTASLTITGAQAEDEADYYCIARSNKGNPHVLFGGGTQLTVL"
endpoint_result = 0.136

[[record]]
binder = "AbT (antibody, human IgG1, V domains shown, CDR3 graft, residue limits derived as for m29; also called VHP/VL9; VHPTM/VL9) VH: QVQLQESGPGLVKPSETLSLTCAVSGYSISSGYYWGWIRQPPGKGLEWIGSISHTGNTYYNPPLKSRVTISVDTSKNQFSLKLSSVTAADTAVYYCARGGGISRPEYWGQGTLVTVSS VL: SSELTQDPAVSVALGQTVRITCQGDSLRTYYASWYQQKPGQAPVLVIYGKHKRPSGIPDRFSGSSSGNTASLTITGAQAEDEADYYCVARSNKGNPHVLFGGGTQLTVL"
endpoint_result = 0.102

